List of kon values.
assaySystem: T1, wildtype feline IL-31 protein (Feline_IL31_wildtype) (feline)
T1 construct: Full length feline IL-31 with C-terminal His tag, secreted from ExpiCHO cells; also called fIL-31
T1 chain: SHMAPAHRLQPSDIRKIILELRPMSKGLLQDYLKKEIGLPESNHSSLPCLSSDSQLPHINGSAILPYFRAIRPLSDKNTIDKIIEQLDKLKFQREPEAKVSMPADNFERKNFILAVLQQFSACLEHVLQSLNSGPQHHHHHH
assaySummary: SPR (Biacore), IL-31 on chip, 1:1 fit
Please give a number only; it is taken to be in M⁻¹ s⁻¹.

Feline 15H05 1.1 V43I (antibody, V domains shown) VH: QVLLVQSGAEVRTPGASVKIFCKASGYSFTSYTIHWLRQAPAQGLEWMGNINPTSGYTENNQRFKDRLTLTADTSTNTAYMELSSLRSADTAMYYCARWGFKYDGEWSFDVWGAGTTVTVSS VL: EIQMTQSPSSLSASPGDRVTITCRASQGISIWLSWYQQKPGKIPKLLIYKASNLHIGVPSRFSGSGSGTDFTLTISSLEPEDAATYYCLQSQTYPLTFGGGTKLEIK: 29400

Now take the following binder into account.
[ask] State its kon for this binder: Feline_11E12 1.1_K46Q (antibody, V domains shown, felinized 11E12 with the single VL substitution K46Q; copies: 2 + 2) VH: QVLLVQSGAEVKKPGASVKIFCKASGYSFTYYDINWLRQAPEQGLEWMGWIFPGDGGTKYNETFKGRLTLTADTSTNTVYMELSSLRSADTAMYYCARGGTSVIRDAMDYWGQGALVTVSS VL: EIQMTQSPSSLSASPGDRVTITCRASESVDNYGISFMHWYQQKPGQVPKLLIYRASNLESGVPSRFSGSGSGTDFTLTISSLEPEDAATYYCQQSNKDPLTFGQGTKLEIK
[reply] 11500
